Assay: PK assay in rat (IV and PO)
Format: in vivo
Settings: plasma, SD rats, IV 1 mg/kg, PO 5 mg/kg, read-out: F % (absolute bioavailability)
Below, each of the compounds is paired with its reported bioavailability value.
parameter: bioavailability

- COc1cc2nccc(Oc3ccc(NC(=O)c4cc(-c5ccc(C)cc5)cn(CC5CCOCC5)c4=O)nc3)c2cc1OC: 46.4%
- COc1cc2nccc(Oc3ccc(NC(=O)c4nn(C5CCOCC5)cc(-c5ccc(F)cc5)c4=O)nc3)c2cc1OC: 65.7%
- COc1cc2nccc(Oc3ccc(NC(=O)c4nn(C5CCOCC5)cc(-c5ccc(C)cc5)c4=O)nc3)c2cc1OC: 70.7%
- COc1cc2nccc(Oc3ccc(NC(=O)c4nn(CC5CCOCC5)cc(-c5ccc(C)cc5)c4=O)nc3)c2cc1OC: 31.3%
- COc1cc2nccc(Oc3ccc(NC(=O)c4cn(C5CCOCC5)cc(-c5ccc(C)cc5)c4=O)nc3)c2cc1OC: 40.5%
- COc1cc2nccc(Oc3cnc(NC(=O)c4nn(C5CCOCC5)cc(-c5ccc(C)cc5)c4=O)nc3)c2cc1OC: 34.6%

----------
Assay: PK assay in rat (IV and PO)
Assay type: in vivo
Details: plasma, SD rats, IV 1 mg/kg, read-out: Cl_obs iv (clearance rate) (converted)
parameter: clearance (mL/min/kg)

* COc1cc2nccc(Oc3ccc(NC(=O)c4nn(C5CCOCC5)cc(-c5ccc(C)cc5)c4=O)nc3)c2cc1OC | 3.5
* COc1cc2nccc(Oc3ccc(NC(=O)c4cc(-c5ccc(C)cc5)cn(CC5CCOCC5)c4=O)nc3)c2cc1OC | 3.33
* COc1cc2nccc(Oc3ccc(NC(=O)c4cn(C5CCOCC5)cc(-c5ccc(C)cc5)c4=O)nc3)c2cc1OC | 6.17
* COc1cc2nccc(Oc3cnc(NC(=O)c4nn(C5CCOCC5)cc(-c5ccc(C)cc5)c4=O)nc3)c2cc1OC | 11
* COc1cc2nccc(Oc3ccc(NC(=O)c4nn(C5CCOCC5)cc(-c5ccc(F)cc5)c4=O)nc3)c2cc1OC | 1.83
* COc1cc2nccc(Oc3ccc(NC(=O)c4nn(CC5CCOCC5)cc(-c5ccc(C)cc5)c4=O)nc3)c2cc1OC | 4

----------
Item-by-item account of pIC50
Target: MDA-MB-231 cell pAxl (Homo sapiens)
Construct: endogenous in cells
Sequence (P30530 26-894): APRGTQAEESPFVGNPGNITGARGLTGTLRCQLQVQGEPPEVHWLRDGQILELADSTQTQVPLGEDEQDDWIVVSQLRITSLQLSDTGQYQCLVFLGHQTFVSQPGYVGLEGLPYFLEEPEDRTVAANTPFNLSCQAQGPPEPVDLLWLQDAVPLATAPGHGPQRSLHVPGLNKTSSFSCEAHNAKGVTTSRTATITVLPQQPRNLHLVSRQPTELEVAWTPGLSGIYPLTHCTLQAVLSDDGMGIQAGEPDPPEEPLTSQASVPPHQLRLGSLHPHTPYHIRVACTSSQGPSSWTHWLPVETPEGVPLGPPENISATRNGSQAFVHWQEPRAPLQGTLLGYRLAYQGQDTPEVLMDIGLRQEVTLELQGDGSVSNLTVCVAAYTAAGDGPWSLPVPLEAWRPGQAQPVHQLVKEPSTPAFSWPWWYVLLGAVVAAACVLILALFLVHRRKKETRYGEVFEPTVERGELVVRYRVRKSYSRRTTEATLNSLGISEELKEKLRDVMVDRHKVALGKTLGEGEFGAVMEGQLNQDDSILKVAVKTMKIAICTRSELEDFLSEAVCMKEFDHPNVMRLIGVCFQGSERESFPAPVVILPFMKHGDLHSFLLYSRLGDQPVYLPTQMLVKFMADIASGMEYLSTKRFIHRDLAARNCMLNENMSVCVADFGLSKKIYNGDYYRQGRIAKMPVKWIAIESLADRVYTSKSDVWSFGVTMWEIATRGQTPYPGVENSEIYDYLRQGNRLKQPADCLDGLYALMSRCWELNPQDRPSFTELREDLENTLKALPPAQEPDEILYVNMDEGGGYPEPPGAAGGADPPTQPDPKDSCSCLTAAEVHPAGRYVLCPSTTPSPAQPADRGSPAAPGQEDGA
Assay: Inhibitory activity on cell pAxl, MDA-MB-231 cells, hGAS6 stimulation, Western Blot
Conditions: hGAS6 200 ng/mL
pIC50: −log10 of the molar value.
parameter: pIC50

• COc1cc2nccc(Oc3cnc(NC(=O)c4cn(C5CCOCC5)cc(-c5ccc(C)cc5)c4=O)nc3)c2cc1OC = > 8.00
• COc1cc2nccc(Oc3ccc(NC(=O)c4cn(CC5CCOCC5)cc(-c5ccc(C)cc5)c4=O)nn3)c2cc1OC = > 8.00
• COc1cc2nccc(Oc3ccc(NC(=O)c4cn(CC5CCOCC5)c5ccccc5c4=O)nc3)c2cc1OC = ≥ 6.30
• COc1cc2nccc(Oc3ccc(NC(=O)c4cn(CC5CCOCC5)cc(-c5ccc(C)cc5)c4=O)nc3)c2cc1OC = > 8.96
• COc1cc2nccc(Oc3ccc(NC(=O)c4cn(CC5CCS(=O)(=O)CC5)cc(-c5ccc(C)cc5)c4=O)nc3)c2cc1OC = ≥ 8.96
• COc1cc2nccc(Oc3ccc(NC(=O)c4cc(CC5CCOCC5)cn(-c5ccc(C)cc5)c4=O)nc3)c2cc1OC = > 8.48
• COc1cc2nccc(Oc3ccc(NC(=O)c4cc(-c5ccc(C)cc5)cn(CC5CCOCC5)c4=O)nc3)c2cc1OC = ≥ 8.51
• COc1cc2nccc(Oc3ccc(NC(=O)c4nn(CC5CCOCC5)cc(-c5ccc(C)cc5)c4=O)nc3)c2cc1OC = > 8.96
• COc1cc2nccc(Oc3cnc(NC(=O)c4nn(CC5CCOCC5)cc(-c5ccc(C)cc5)c4=O)nc3)c2cc1OC = > 8.96
• COc1cc2nccc(Oc3cnc(NC(=O)c4nn(C5CCOCC5)cc(-c5ccc(C)cc5)c4=O)nc3)c2cc1OC = > 8.96
• COc1cc2nccc(Oc3ccc(NC(=O)c4cn(C5CCOCC5)cc(-c5ccc(C)cc5)c4=O)nc3)c2cc1OC = > 8.96
• COc1cc2nccc(Oc3ccc(NC(=O)c4cn(CC5CC[S+]([O-])CC5)cc(-c5ccc(C)cc5)c4=O)nc3)c2cc1OC (stereo not drawn) = ≥ 9.00
• COc1cc2nccc(Oc3ccc(NC(=O)c4nn(C5CCOCC5)cc(-c5ccc(C)cc5)c4=O)nc3)c2cc1OC = > 8.96
• COc1cc2nccc(Oc3ccc(NC(=O)c4cn(CC5CCSCC5)cc(-c5ccc(C)cc5)c4=O)nc3)c2cc1OC = > 8.00
• COc1cc2nccc(Oc3cnc(NC(=O)c4cn(CC5CCOCC5)cc(-c5ccc(C)cc5)c4=O)nc3)c2cc1OC = > 8.96
